The following compounds are listed with their measured pIC50 values.
target: recombinant human HPK1 (Homo sapiens (Human)); assay: HPK1 kinase assay (ADP-Glo); settings: 25 μM ATP, MBP substrate
pIC50: −log10 of the molar value.

- Smiles: "CCOc1c(F)c(N(C)C)c2[nH]ncc2c1-c1ccn2nc(NC(=O)[C@@H]3C[C@@H]3F)cc2c1"
  Study Target: "recombinant human HPK1 (Homo sapiens (Human))"
  pIC50: "> 7.00"
- Smiles: "CC(=O)Nc1c(F)c(C)c(-c2ccc3nc(NC(=O)[C@@H]4C[C@@H]4F)sc3n2)c2cn[nH]c12"
  Study Target: "recombinant human HPK1 (Homo sapiens (Human))"
  pIC50: "6.30 to 7.00"
- Smiles: "Cc1c(F)c(C#N)c2[nH]ncc2c1-c1ccn2nc(NC(=O)[C@@H]3C[C@@H]3F)cc2c1"
  Study Target: "recombinant human HPK1 (Homo sapiens (Human))"
  pIC50: "> 7.00"

// next entry
Query CN(c1c(F)c(Cl)c(-c2ccc3nc(NC(=O)[C@@H]4C[C@@H]4F)cn3c2)c2cn[nH]c12)C1CC1 yields pIC50 of > 7.00

----------
Biological target: recombinant human HPK1 (Homo sapiens (Human))
Assay: HPK1 kinase assay (ADP-Glo)
Settings: 25 μM ATP, MBP substrate
Experimental: HPK1 kinase activity was measured by Promega's ADP-Glo™ kinase assay. […] Luminescence was detected after 30-min room temperature incubation with the Molecular device I3X plate reader. The IC50 values were calculated from a series of percent inhibition values determined at a range of inhibitor concentration using software routines as implemented in the GraphPad Prism 7 software and SigmaPlot13.0.
Assay Metric: IC50

Reference set, count: 4
- Compound: "CN(Cc1ccncc1)c1c(F)c(Cl)c(-c2ccc3nc(NC(=O)[C@@H]4C[C@@H]4F)cn3c2)c2cn[nH]c12"
  Assay Metric: "IC50"
  Result: "< 100 nM"
- Compound: "CNNc1c(F)c(Cl)c(-c2ccn3nc(NC(=O)[C@@H]4C[C@@H]4F)cc3c2)c2cn[nH]c12"
  Assay Metric: "IC50"
  Result: "< 100 nM"
- Compound: "CCOC(=O)CSc1c(F)c(CC)c(-c2ccc3nc(NC(=O)[C@@H]4C[C@@H]4F)sc3n2)c2cn[nH]c12"
  Assay Metric: "IC50"
  Result: "< 100 nM"
- Compound: "CC(C)Oc1c(F)c(Cl)c(-c2ccn3nc(NC(=O)[C@@H]4C[C@@H]4F)cc3c2)c2cn[nH]c12"
  Assay Metric: "IC50"
  Result: "< 100 nM"

Query O=C(Nc1cn2cc(-c3c(CO)ccc4[nH]ncc34)ccc2n1)C1CC1 yields IC50 of 501 to 1000 nM

Query CN(c1ncccn1)c1c(F)c(Cl)c(-c2ccc3nc(NC(=O)[C@@H]4C[C@@H]4F)cn3c2)c2cn[nH]c12 yields IC50 of < 100 nM

----------
target: recombinant human HPK1 (Homo sapiens (Human)); test: HPK1 kinase assay (ADP-Glo); settings: 25 μM ATP, MBP substrate
pIC50: −log10 of the molar value.
The following compounds are listed with their measured pIC50 values.

Reference set, count: 3
- Compound: "N#Cc1ccc2[nH]ncc2c1-c1ccc2nc(NC(=O)C3CC3)cn2c1"
  pIC50: "> 7.00"
- Compound: "CC(c1c(F)c(Cl)c(-c2ccc3nc(NC(=O)[C@@H]4C[C@@H]4F)cn3c2)c2cn[nH]c12)[S+](C)[O-] (stereo partly shown)"
  pIC50: "> 7.00"
- Compound: "COCCOc1ccc2[nH]ncc2c1-c1ccc2nc(NC(=O)[C@@H]3C[C@@H]3F)sc2c1"
  pIC50: "< 6.00"

Query Cc1c(F)c(C)c2[nH]ncc2c1-c1ccc2nc(NC(=O)[C@@H]3C[C@@H]3F)sc2c1 yields pIC50 of > 7.00

----------
target: recombinant human HPK1 (Homo sapiens (Human)); experiment: HPK1 kinase assay (ADP-Glo); type: biochemical; settings: 25 μM ATP, MBP substrate
The following compounds are listed with their measured IC50 values.

Reference set, count: 4
- Compound: "C=CC(=O)Nc1cc(Cl)c(-c2ccc3nc(NC(=O)[C@@H]4C[C@@H]4F)cn3c2)c2cn[nH]c12"
  IC50: "< 100 nM"
- Compound: "CS(=O)(=O)c1c(F)c(Cl)c(-c2ccc3nc(NC(=O)[C@@H]4C[C@@H]4F)sc3c2)c2cn[nH]c12"
  IC50: "101 to 500 nM"
- Compound: "O=C(Nc1cc2cc(-c3c(Br)ccc4[nH]ncc34)ccn2n1)[C@@H]1C[C@@H]1F"
  IC50: "< 100 nM"
- Compound: "COc1c(F)c(C)c(-c2ccc3nc(NC(=O)[C@@H]4C[C@@H]4F)cn3c2)c2cn[nH]c12"
  IC50: "< 100 nM"

Log: recombinant human HPK1 (Homo sapiens (Human)), compound CSc1ccc(-c2ccn3nc(NC(=O)[C@@H]4C[C@@H]4F)cc3c2)c2cn[nH]c12 , IC50 = < 100 nM

Log: recombinant human HPK1 (Homo sapiens (Human)), compound Cc1c(F)c(Cl)c2[nH]ncc2c1-c1ccn2nc(NC(=O)[C@@H]3C[C@@H]3F)cc2c1 , IC50 = < 100 nM

Log: recombinant human HPK1 (Homo sapiens (Human)), compound CC(=O)c1c(F)c(C)c(-c2ccn3nc(NC(=O)[C@@H]4C[C@@H]4F)cc3c2)c2cn[nH]c12 , IC50 = 101 to 500 nM

Log: recombinant human HPK1 (Homo sapiens (Human)), compound C=CC(=O)Nc1c(F)c(Cl)c(-c2ccc3nc(NC(=O)[C@@H]4C[C@@H]4F)sc3c2)c2cn[nH]c12 , IC50 = 101 to 500 nM

Log: recombinant human HPK1 (Homo sapiens (Human)), compound CN(CCN)c1c(F)c(Cl)c(-c2ccc3nc(NC(=O)[C@@H]4C[C@@H]4F)sc3c2)c2cn[nH]c12 , IC50 = < 100 nM

Log: recombinant human HPK1 (Homo sapiens (Human)), compound CCOc1c(F)c(F)c2[nH]ncc2c1-c1ccn2nc(NC(=O)[C@@H]3C[C@@H]3F)cc2c1 , IC50 = < 100 nM

Log: recombinant human HPK1 (Homo sapiens (Human)), compound Cc1c(F)c(OC(F)(F)F)c2[nH]ncc2c1-c1ccc2nc(NC(=O)[C@@H]3C[C@@H]3F)cn2c1 , IC50 = < 100 nM

Log: recombinant human HPK1 (Homo sapiens (Human)), compound O=C(Nc1nc2ccc(-c3c(-c4cccs4)ccc4[nH]ncc34)cc2s1)C1CC1 , IC50 = > 1000 nM

----------
The following molecules are listed with their measured IC50 values.
biological target: recombinant human HPK1 (Homo sapiens (Human), UniProt Q92918); test: HPK1 kinase assay (ADP-Glo); settings: 25 μM ATP, MBP substrate
Sequence (Q92918 whole entry): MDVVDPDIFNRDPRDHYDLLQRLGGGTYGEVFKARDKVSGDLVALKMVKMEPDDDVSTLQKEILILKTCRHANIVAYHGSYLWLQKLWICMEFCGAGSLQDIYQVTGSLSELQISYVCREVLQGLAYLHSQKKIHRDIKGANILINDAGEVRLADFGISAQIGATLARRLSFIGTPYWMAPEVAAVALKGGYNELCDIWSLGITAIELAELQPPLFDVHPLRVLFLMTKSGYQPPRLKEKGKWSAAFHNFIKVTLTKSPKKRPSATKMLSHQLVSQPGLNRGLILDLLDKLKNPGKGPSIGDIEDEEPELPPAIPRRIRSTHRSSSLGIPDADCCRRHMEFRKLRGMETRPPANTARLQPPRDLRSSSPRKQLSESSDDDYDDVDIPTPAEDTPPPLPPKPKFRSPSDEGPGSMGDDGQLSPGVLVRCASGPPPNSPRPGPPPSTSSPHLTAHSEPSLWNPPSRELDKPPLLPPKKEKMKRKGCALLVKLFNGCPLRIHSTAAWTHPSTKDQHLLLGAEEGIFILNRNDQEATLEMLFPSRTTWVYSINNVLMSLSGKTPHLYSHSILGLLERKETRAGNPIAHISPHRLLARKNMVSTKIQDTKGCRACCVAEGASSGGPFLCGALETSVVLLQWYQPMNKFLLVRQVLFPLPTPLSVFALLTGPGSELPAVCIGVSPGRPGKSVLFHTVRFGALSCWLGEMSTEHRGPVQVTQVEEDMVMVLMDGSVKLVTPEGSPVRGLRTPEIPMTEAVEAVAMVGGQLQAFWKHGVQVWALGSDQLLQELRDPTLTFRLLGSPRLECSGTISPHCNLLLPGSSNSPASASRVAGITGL

- Molecule: "COc1c(F)cc2[nH]ncc2c1-c1ccc2nc(NC(=O)C3CC3)cn2c1"
  Study Target: "recombinant human HPK1 (Homo sapiens (Human), UniProt Q92918)"
  Result: "< 100 nM"
- Molecule: "Cc1c(F)c(I)c2[nH]ncc2c1-c1ccc2nc(NC(=O)[C@@H]3C[C@@H]3F)sc2c1"
  Study Target: "recombinant human HPK1 (Homo sapiens (Human), UniProt Q92918)"
  Result: "< 100 nM"
- Molecule: "CS(=O)(=O)c1c(F)c(Cl)c(-c2ccc3nc(NC(=O)[C@@H]4C[C@@H]4F)cn3c2)c2cn[nH]c12"
  Study Target: "recombinant human HPK1 (Homo sapiens (Human), UniProt Q92918)"
  Result: "101 to 500 nM"

Query C[C@H](c1c(F)c(Cl)c(-c2ccc3nc(NC(=O)[C@@H]4C[C@@H]4F)cn3c2)c2cn[nH]c12)n1cnnn1 yields IC50 of < 100 nM

Query O=C(Nc1cn2cc(-c3c(Cl)c(F)c(Cl)c4[nH]ncc34)ccc2n1)[C@@H]1C[C@@H]1F yields IC50 of < 100 nM

Query Cc1c(F)c(OCCO)c2[nH]ncc2c1-c1ccn2nc(NC(=O)[C@@H]3C[C@@H]3F)cc2c1 yields IC50 of < 100 nM

Query CCOc1c(F)c(CC)c(-c2ccn3nc(NC(=O)[C@@H]4C[C@@H]4F)cc3c2)c2cn[nH]c12 yields IC50 of < 100 nM

Query CP(C)(=O)c1c(F)c(Cl)c(-c2ccn3nc(NC(=O)[C@@H]4C[C@@H]4F)cc3c2)c2cn[nH]c12 yields IC50 of 501 to 1000 nM

Query CN(C)C(=O)CNc1c(F)c(Cl)c(-c2ccc3nc(NC(=O)[C@@H]4C[C@@H]4F)cn3c2)c2cn[nH]c12 yields IC50 of < 100 nM

Query C=Cc1c(F)cc2[nH]ncc2c1-c1ccn2nc(NC(=O)[C@@H]3C[C@@H]3F)cc2c1 yields IC50 of < 100 nM

Query Cc1ccc2[nH]ncc2c1-c1ccc2nc(NC(=O)C3CC3(F)F)sc2c1 (centres unmarked) yields IC50 of 101 to 500 nM

Query NC(=O)c1c(F)c(Cl)c(-c2ccc3nc(NC(=O)[C@@H]4C[C@@H]4F)cn3c2)c2cn[nH]c12 yields IC50 of > 1000 nM

Query CNC(=O)c1c(F)c(Cl)c(-c2ccn3nc(NC(=O)[C@@H]4C[C@@H]4F)cc3c2)c2cn[nH]c12 yields IC50 of < 100 nM

Query O=C(Nc1cc2cc(-c3c(Cl)c(F)c(NC4CCC(O)CC4)c4[nH]ncc34)ccn2n1)[C@@H]1C[C@@H]1F (some centres unmarked) yields IC50 of < 100 nM

Query CCOc1c(F)cc2[nH]ncc2c1-c1ccc2nc(NC(=O)[C@@H]3C[C@@H]3F)cn2c1 yields IC50 of < 100 nM

Query Cc1c(F)c(C(=O)O)c2[nH]ncc2c1-c1ccc2nc(NC(=O)[C@@H]3C[C@@H]3F)sc2c1 yields IC50 of > 1000 nM

Query O=C(Nc1nc2ccc(-c3c(C4CC4)c(F)cc4[nH]ncc34)nc2s1)[C@@H]1C[C@@H]1F yields IC50 of 101 to 500 nM

Query C#Cc1ccc2[nH]ncc2c1-c1ccc2nc(NC(=O)[C@@H]3C[C@@H]3F)sc2c1 yields IC50 of 101 to 500 nM
